Reported DC50 values are given for each entry in this list.
target: GSPT1 (Homo sapiens (Human), UniProt P15170+Q96SW2); test: immunofluorescence assay for GSPT1 degradation in CAL-51 cells (Example 10); assay type: cell-based; settings: CAL-51 cells, 6 h; read-out: IF Class (GSPT1 degradation DC50)
Sequence (P15170 whole entry, one chain of several): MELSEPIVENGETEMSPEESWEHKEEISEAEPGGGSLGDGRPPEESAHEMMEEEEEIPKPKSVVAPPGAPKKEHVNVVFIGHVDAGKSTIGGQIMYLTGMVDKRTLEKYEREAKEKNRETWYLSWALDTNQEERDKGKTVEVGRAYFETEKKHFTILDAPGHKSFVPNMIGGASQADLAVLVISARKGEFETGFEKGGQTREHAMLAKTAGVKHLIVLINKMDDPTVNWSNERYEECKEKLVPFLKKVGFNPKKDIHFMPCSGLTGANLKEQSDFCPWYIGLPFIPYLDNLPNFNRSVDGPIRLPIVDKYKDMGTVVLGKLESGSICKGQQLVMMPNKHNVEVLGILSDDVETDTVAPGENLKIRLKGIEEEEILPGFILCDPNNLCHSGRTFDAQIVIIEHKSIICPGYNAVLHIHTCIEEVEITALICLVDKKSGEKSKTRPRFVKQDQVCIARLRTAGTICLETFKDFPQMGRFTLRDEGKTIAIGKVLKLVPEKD
Sequence (Q16531 2-1140 partner, one chain of several): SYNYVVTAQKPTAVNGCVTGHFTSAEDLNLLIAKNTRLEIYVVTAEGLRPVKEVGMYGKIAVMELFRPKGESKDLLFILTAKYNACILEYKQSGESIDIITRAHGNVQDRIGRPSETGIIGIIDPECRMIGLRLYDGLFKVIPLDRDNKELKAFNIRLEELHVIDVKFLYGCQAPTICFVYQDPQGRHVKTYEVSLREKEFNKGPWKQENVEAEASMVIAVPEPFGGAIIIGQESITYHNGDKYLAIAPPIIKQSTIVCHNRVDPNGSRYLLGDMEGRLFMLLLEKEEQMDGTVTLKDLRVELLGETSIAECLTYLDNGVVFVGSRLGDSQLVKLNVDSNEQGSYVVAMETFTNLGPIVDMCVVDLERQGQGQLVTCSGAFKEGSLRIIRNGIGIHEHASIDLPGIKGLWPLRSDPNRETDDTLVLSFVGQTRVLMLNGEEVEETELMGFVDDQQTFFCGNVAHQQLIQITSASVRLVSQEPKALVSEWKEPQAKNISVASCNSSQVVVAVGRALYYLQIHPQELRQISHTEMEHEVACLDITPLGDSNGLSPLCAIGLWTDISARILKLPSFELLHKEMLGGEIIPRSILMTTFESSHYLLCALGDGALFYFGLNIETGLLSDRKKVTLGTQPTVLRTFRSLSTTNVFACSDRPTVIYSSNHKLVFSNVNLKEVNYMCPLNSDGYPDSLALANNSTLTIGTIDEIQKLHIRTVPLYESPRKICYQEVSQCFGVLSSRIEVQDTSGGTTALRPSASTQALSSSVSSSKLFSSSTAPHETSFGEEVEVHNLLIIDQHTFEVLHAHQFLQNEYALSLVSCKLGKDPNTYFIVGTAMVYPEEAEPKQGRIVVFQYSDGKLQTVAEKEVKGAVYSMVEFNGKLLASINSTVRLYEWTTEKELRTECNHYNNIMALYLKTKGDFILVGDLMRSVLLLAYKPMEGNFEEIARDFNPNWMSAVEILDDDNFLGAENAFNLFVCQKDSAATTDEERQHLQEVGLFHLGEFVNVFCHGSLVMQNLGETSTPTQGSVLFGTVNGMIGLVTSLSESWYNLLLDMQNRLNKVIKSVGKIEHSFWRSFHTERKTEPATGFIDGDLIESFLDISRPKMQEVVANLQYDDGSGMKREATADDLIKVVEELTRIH

Below: 6 molecules and their reported DC50.
[
  {
    "Molecule": "O=C1CCC(N2Cc3ccc(COC(=O)Nc4cc(C5CC5)ccc4F)cc3C2=O)C(=O)N1 (centres unmarked) [Compound 207]",
    "DC50": "0.03 to 0.3 µM"
  },
  {
    "Molecule": "O=C1CCC(N2Cc3ccc(COC(=O)NC45CC(C4)C5)cc3C2=O)C(=O)N1 (centres unmarked) [Compound 193]",
    "DC50": "> 0.3 µM"
  },
  {
    "Molecule": "O=C1CCC(N2Cc3ccc(COC(=O)Nc4ccc(C(O)C(F)(F)F)cc4)cc3C2=O)C(=O)N1 (centres unmarked) [Compound 209]",
    "DC50": "> 0.3 µM"
  },
  {
    "Molecule": "O=C1CCC(N2Cc3ccc(COC(=O)NC45CC(C(F)F)(C4)C5)cc3C2=O)C(=O)N1 (centres unmarked) [Compound 219]",
    "DC50": "> 0.3 µM"
  },
  {
    "Molecule": "CC(F)(F)c1ccc(F)c(NC(=O)OCc2ccc3c(c2)C(=O)N(C2CCC(=O)NC2=O)C3)c1 (centres unmarked) [Compound 234]",
    "DC50": "> 0.3 µM"
  },
  {
    "Molecule": "CCOc1cc(NC(=O)OCc2ccc3c(c2)C(=O)N(C2CCC(=O)NC2=O)C3)c(F)cc1C (centres unmarked) [Compound 228]",
    "DC50": "< 0.03 µM"
  }
]

Which DC50 is listed for Cc1cc(NC(=O)OCc2ccc3c(c2)C(=O)N(C2CCC(=O)NC2=O)C3)cc(C#N)c1C (centres unmarked) [Compound 186] ? < 0.03 µM

Moving on to the next molecule: Cc1cc(F)c(NC(=O)OCc2ccc3c(c2)C(=O)N(C2CCC(=O)NC2=O)C3)c(F)c1 (centres unmarked) [Compound 166] > 0.3 µM

* * *

target: Full length wild-type cereblon CRBN (Homo sapiens (Human), UniProt Q96SW2); assay: fluorescence polarization (FP) assay, cereblon binding; conditions: read-out: rFP IC50
Sequence (Q96SW2 whole entry): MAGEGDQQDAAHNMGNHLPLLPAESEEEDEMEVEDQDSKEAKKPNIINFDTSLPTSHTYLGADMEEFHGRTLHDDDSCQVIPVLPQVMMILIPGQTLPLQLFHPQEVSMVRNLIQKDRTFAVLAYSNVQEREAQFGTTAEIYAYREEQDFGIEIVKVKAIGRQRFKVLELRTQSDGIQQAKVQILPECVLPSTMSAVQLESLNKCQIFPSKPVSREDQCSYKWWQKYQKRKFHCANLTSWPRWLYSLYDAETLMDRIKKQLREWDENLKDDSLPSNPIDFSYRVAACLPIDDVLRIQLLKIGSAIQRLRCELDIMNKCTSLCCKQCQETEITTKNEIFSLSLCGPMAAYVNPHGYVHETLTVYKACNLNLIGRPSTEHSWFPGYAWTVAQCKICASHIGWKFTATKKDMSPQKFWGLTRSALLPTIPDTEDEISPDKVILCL
pIC50: −log10 of the molar value.
Reported pIC50 values are given for each entry in this list.

Below: 4 molecules and their reported pIC50.
[
  {
    "Molecule": "O=C1CCC(N2Cc3ccc(COC(=O)N4CCCCC4)cc3C2=O)C(=O)N1 (stereo not drawn)",
    "Observed Measurement": "> 6.30"
  },
  {
    "Molecule": "O=C1CCC(N2Cc3ccc(COC(=O)Nc4cnc(-c5ccccc5)c(F)c4)cc3C2=O)C(=O)N1 (stereo not drawn)",
    "Observed Measurement": "< 5.77"
  },
  {
    "Molecule": "O=C1CCC(N2Cc3ccc(COC(=O)Nc4ccc(C5COC5)cc4)cc3C2=O)C(=O)N1 (stereo not drawn)",
    "Observed Measurement": "> 6.30"
  },
  {
    "Molecule": "O=C1CCC(N2Cc3ccc(COC(=O)Nc4ccc(-c5ccccc5)nc4)cc3C2=O)C(=O)N1 (stereo not drawn)",
    "Observed Measurement": "< 5.77"
  }
]

Please turn your attention to the following entry.
Tell me reported pIC50 for O=C1CCC(N2Cc3ccc(COC(=O)Nc4ccc(C5CC5)nc4)cc3C2=O)C(=O)N1 (stereo not drawn) , tested with Full length wild-type cereblon CRBN (Homo sapiens (Human), UniProt Q96SW2). > 6.30
